Assay Info: Circular dichroism spectroscopy (helical content)
Format: physicochemical
Applied Conditions: 50 mM phosphate buffer; from elipticity at 222 nM
Square brackets hold non-standard residues; d marks the D form. Peptide text beside a SMILES is read from it. hArg = N=C(N)NCCCC[C@H](N)C(=O)O; Aib = CC(C)(N)C(=O)O
Listed here: items and their measured helical residues (%), Phos..
Reply with just the number (in %).

Would you mind telling me what helical residues (%), Phos. value was observed for CC[C@H](C)[C@H](NC(=O)[C@H](CCC(=O)O)NC(=O)C(C)(C)NC(=O)[C@@H](NC(=O)C(C)(C)N)C(C)C)C(=O)N[C@@H](CCC(N)=O)C(=O)N[C@@H](CC(C)C)C(=O)N[C@@H](CCSC)C(=O)N[C@@H](Cc1c[nH]cn1)C(=O)N[C@@H](CCC(N)=O)C(=O)N[C@@H](CCCCNC(=N)N)C(=O)N[C@@H](C)C(=O)N[C@@H](CCCCN)C(=O)N[C@@H](Cc1c[nH]c2ccccc12)C(N)=O [[Aib^1,3,M]PTH(1-14)] (H-[Aib]V[Aib]EIQLMHQ[hArg]AKW-NH2) ?
16

Would you mind telling me what helical residues (%), Phos. value was observed for CC[C@H](C)[C@H](NC(=O)[C@H](CCC(=O)O)NC(=O)C(C)(C)NC(=O)[C@@H](NC(=O)C(C)(C)N)C(C)C)C(=O)N[C@@H](CCC(N)=O)C(=O)N[C@@H](CC(C)C)C(=O)N[C@@H](CCSC)C(=O)N[C@@H](Cc1c[nH]cn1)C(=O)N[C@@H](CCC(N)=O)C(=O)N[C@@H](CCCCNC(=N)N)C(N)=O [[Aib^1,3,M]PTH(1-11), AibValAibGluIleGlnLeuMetHisGlnHar] (H-[Aib]V[Aib]EIQLMHQ[hArg]-NH2) ?
13

Would you mind telling me what helical residues (%), Phos. value was observed for CC[C@H](C)[C@H](NC(=O)[C@H](CCC(=O)O)NC(=O)[C@H](C)NC(=O)[C@@H](NC(=O)[C@H](C)N)C(C)C)C(=O)N[C@@H](CCC(N)=O)C(=O)N[C@@H](CC(C)C)C(=O)N[C@@H](CCSC)C(=O)N[C@@H](Cc1c[nH]cn1)C(=O)N[C@@H](CCC(N)=O)C(=O)N[C@@H](CCCCNC(=N)N)C(=O)N[C@@H](C)C(=O)N[C@@H](CCCCN)C(=O)N[C@@H](Cc1c[nH]c2ccccc12)C(N)=O [[M]PTH(1-14), reference compound] (H-AVAEIQLMHQ[hArg]AKW-NH2) ?
8.1

Would you mind telling me what helical residues (%), Phos. value was observed for CC[C@H](C)[C@H](NC(=O)[C@H](CCC(=O)O)NC(=O)C(C)(C)NC(=O)[C@@H](NC(=O)C(C)(C)N)C(C)C)C(=O)N[C@@H](CCC(N)=O)C(=O)N[C@@H](CC(C)C)C(=O)N[C@@H](CCSC)C(=O)N[C@@H](Cc1c[nH]cn1)C(=O)N[C@@H](CCC(N)=O)C(N)=O [[Aib^1,3,M]PTH(1-10), [Aib^1,3,Gln^10]PTH(1-10)] (H-[Aib]V[Aib]EIQLMHQ-NH2) ?
11

* * *

Tgt: human P1R (Homo sapiens)
Construct: expressed in transfected cells; host or cells: HKRK-B28 (porcine kidney LLC-PK1, stably transfected)
Sequence (Q03431 27-593): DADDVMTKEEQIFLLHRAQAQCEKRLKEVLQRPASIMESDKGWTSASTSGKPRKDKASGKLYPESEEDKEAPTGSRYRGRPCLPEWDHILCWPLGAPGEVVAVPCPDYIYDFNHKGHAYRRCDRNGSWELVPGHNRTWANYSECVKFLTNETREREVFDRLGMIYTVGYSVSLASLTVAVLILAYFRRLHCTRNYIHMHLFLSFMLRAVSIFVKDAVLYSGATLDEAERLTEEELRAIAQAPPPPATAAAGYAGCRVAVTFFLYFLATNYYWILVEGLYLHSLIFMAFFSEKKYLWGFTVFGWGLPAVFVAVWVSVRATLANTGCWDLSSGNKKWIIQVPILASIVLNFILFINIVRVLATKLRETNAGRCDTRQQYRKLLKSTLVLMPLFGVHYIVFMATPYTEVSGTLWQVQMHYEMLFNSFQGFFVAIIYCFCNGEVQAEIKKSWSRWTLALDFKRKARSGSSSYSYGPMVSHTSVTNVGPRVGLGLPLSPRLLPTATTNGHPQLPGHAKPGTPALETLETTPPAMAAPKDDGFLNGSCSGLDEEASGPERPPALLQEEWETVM
Assay Info: cAMP stimulation in HKRK-B28 cells
Assay type: cell-based
Square brackets hold non-standard residues; d marks the D form. Peptide text beside a SMILES is read from it. Aib = CC(C)(N)C(=O)O
Measurement Kind: EC50 (µM)
Reply with just the number (in µM).

Would you mind telling me what EC50 value was observed for CC[C@H](C)[C@H](NC(=O)[C@H](CCC(=O)O)NC(=O)[C@H](C)NC(=O)[C@@H](NC(=O)[C@H](C)N)C(C)C)C(=O)N[C@@H](CCC(N)=O)C(=O)N[C@@H](CC(C)C)C(=O)N[C@@H](CCSC)C(=O)N[C@@H](Cc1c[nH]cn1)C(=O)N[C@@H](CCC(N)=O)C(=O)NC(C)(C)C(=O)N[C@@H](C)C(=O)N[C@@H](CCCCN)C(=O)N[C@@H](Cc1c[nH]c2ccccc12)C(N)=O [Aib-11] (H-AVAEIQLMHQ[Aib]AKW-NH2) ?
67
